System: SK-OV-3 cells
Experiment: Effect of compounds on tryptophan catabolism in SK-OV-3 cell line (inhibition of kynurenine production, LC-MS/MS)
Type: cell-based
Conditions: Homo sapiens, SK-OV-3, 24 h, read-out: IC50 Ranges (ic50 values for inhibition of Kynurenine production)
measurement-label: IC50

structure_smiles_string=Cc1ccc(CN(C(=O)Nc2ccc(C3CN(C(=O)OC(C)(C)C)C3)cc2)C2CCCC2)o1 data_value="1 to 5 µM"

* * *

Here's a batch of compounds along with measured pIC50 for TDO2 enzyme (Homo sapiens).
pIC50: −log10 of the molar value.
measurement-label: pIC50

compound="Cc1ccc(CN(C(=O)Nc2ccc(C3=CCN(C(=O)OC(C)(C)C)C3)cc2)C2CCCC2)o1 [Compound 158]" data_value=5.19
compound="O=C(Nc1ccc(Cl)cc1)N(Cc1cccc(C(F)(F)F)c1)C1CCC1 [Compound 90]" data_value="< 4.52"
compound="Cc1ccc(C(C)N(C(=O)Nc2ccc(Cl)cc2)C2CCCC2)o1 (racemic) [Compound 185]" data_value="< 4.52"
compound="COCC#Cc1ccc(NC(=O)N(Cc2ccc(C)o2)C2CCCC2)cc1 [Compound 162]" data_value="< 4.52"
compound="Cc1ccc(CN(C(=O)Nc2ccc(F)c(O)c2)C2CCCC2)o1 [Compound 104]" data_value="< 4.52"
compound="CCc1ccc(NC(=O)N(Cc2cccs2)C2CCCC2)cc1 [Compound 3]" data_value="< 4.52"
compound="Cc1ccc(CN(C(=O)Nc2ccc(-c3cnoc3)cc2)C2CCCC2)o1 [Compound 105]" data_value="< 4.52"
compound="N#Cc1cccc(CN(C(=O)Nc2ccc(Cl)cc2)C2CCCC2)c1 [Compound 147]" data_value="< 4.52"
compound="Cc1ccc(CN(C(=O)Nc2ccc(C#CC(C)(C)O)cc2)C2CCCC2)o1 [Compound 109]" data_value=5.22

* * *

System: monocyte-derived dendritic cells
Assay: Cell viability / cytotoxicity in monocyte-derived dendritic cells (ATP, CellTiter Glo)
Format: cell-based, human
Details: 24 h, unit assumed
// classify: if (Cell viability at 30 uM (% of untreated control) < 80%) satisfied else not satisfied

structure_smiles_string=Cc1ccc(CN(C(=O)Nc2ccc(F)cc2)C2CCC2)o1 group_label="not satisfied"
structure_smiles_string=O=C(Nc1ccc(Cl)cc1)N(Cc1ccnc(C(F)(F)F)c1)C1CCCC1 group_label="not satisfied"
structure_smiles_string=N#Cc1cc(CN(C(=O)Nc2ccc(Cl)cc2)C2CCCC2)ccc1F group_label="not satisfied"
structure_smiles_string=N#Cc1ccc(NC(=O)N(Cc2cccc(C(F)(F)F)c2)C2CCC2)cc1 group_label=satisfied
structure_smiles_string=Cc1ccc(CN(C(=O)Nc2ccc(Cl)cc2)C2CCCC2)o1 group_label="not satisfied"
structure_smiles_string=O=C(Nc1ccc(F)c(F)c1)N(Cc1ccc(F)c(C(F)(F)F)c1)C1CCCC1 group_label=satisfied
structure_smiles_string=O=C(Nc1ccc(F)c(F)c1)N(Cc1cccc(C(F)(F)F)c1)C1CCCC1 group_label="not satisfied"
structure_smiles_string=O=C(Nc1ccc(Cl)cc1)N(Cc1cccs1)C1CCCC1 group_label="not satisfied"

* * *

System: monocyte-derived dendritic cells
Experiment: Cell viability / cytotoxicity in monocyte-derived dendritic cells (ATP, CellTiter Glo)
Assay type: cell-based, human
Conditions: 24 h, unit assumed
List of Cell viability at 30 uM (% of untreated control) values.
measurement-label: Cell viability at 30 uM (% of untreated control) (%)

structure_smiles_string=Cc1ccc(CN(C(=O)Nc2ccc(Cl)cc2)C2CCC2)o1 assay_target="monocyte-derived dendritic cells" data_value=89
structure_smiles_string=N#Cc1ccc(NC(=O)N(Cc2cccc(C(F)(F)F)c2)C2CCCC2)cc1 assay_target="monocyte-derived dendritic cells" data_value=81
structure_smiles_string=Cc1ccc(CN(C(=O)NCCc2ccccc2)C2CCCC2)s1 assay_target="monocyte-derived dendritic cells" data_value=19
structure_smiles_string=Cc1ccc(CN(C(=O)Nc2ccc(C#N)cc2)C2CCC2)o1 assay_target="monocyte-derived dendritic cells" data_value=108
structure_smiles_string=N#Cc1cccc(CN(C(=O)Nc2ccc(Cl)cc2)C2CCCC2)c1 assay_target="monocyte-derived dendritic cells" data_value=122
structure_smiles_string=O=C(Nc1ccc(Cl)cc1)N(Cc1cccc(C(F)(F)F)c1)C1CCC1 assay_target="monocyte-derived dendritic cells" data_value=67
structure_smiles_string=Cc1ccc(CN(C(=O)Nc2ccc(C#N)cc2)C2CCCC2)o1 assay_target="monocyte-derived dendritic cells" data_value=112
structure_smiles_string=O=C(Nc1ccc(F)c(F)c1)N(Cc1ccc(F)c(OC(F)(F)F)c1)C1CCCC1 assay_target="monocyte-derived dendritic cells" data_value=90
structure_smiles_string=Cc1ncc(CN(C(=O)Nc2ccc(Cl)cc2)C2CCCC2)o1 assay_target="monocyte-derived dendritic cells" data_value=109
